assay: Cmax in Swiss nude mouse at 10 mg/kg, po by LC-ESI-MS/MS method; type: ADME, organism-based; parameters: dose 10 mg/kg, route oral; conditions: in vivo
Measured Parameter: Cmax (ng/mL)

>>> test_result("C[C@@H](O)C(=O)N1CCC(CCn2c(Sc3cc4c(cc3Br)OCCO4)nc3c(N)ncnc32)CC1")
1180
>>> test_result("C[C@H](O)C(=O)N1CCC(CCn2c(Sc3cc4c(cc3Br)OCCO4)nc3c(N)ncnc32)CC1")
564
>>> test_result("Nc1ncnc2c1nc(Sc1cc3c(cc1Br)OCO3)n2CCC1CCN(C=O)CC1")
354
>>> test_result("Nc1ncnc2c1nc(Sc1cc3occc3cc1Br)n2CCC1CCN(C=O)CC1")
2230

[a] Nc1ncnc2c1nc(Sc1cc3c(cc1Br)OCCO3)n2CCC1CCN(C(=O)CO)CC1
[b] Nc1ncnc2c1nc(Sc1cc3c(cc1Br)OCO3)n2CCC1CCN(C(=O)CO)CC1
[c] C[C@@H](O)C(=O)N1CCC(CCn2c(Sc3cc4c(cc3Br)OCO4)nc3c(N)ncnc32)CC1
Prompt: Arrange these compounds by their Cmax, starting with the largest number. As an answer, provide the labels arranged in the order called for.
Response: c, b, a

[1] Nc1ncnc2c1nc(Sc1cc3c(cc1Br)OCCO3)n2CCC1CCN(C=O)CC1
[2] C[C@H](O)C(=O)N1CCC(CCn2c(Sc3cc4c(cc3Br)OCO4)nc3c(N)ncnc32)CC1
Prompt: For the two items 1 and 2 , which reports the higher Cmax value? Lab note: record the label of whichever item you select.
Response: 2

###

assay: Oral bioavailability in Swiss nude mouse at 10 mg/kg by LC-ESI-MS/MS method; format: ADME, organism-based; details: in vivo
Measured Parameter: bioavailability (%)

Worked set:
>>> test_result("Nc1ncnc2c1nc(Sc1cc3c(cc1Br)OCO3)n2CCC1CCN(C=O)CC1")
35
>>> test_result("Nc1ncnc2c1nc(Sc1cc3occc3cc1Br)n2CCC1CCN(C=O)CC1")
131
>>> test_result("Nc1ncnc2c1nc(Sc1cc3c(cc1Br)OCO3)n2CCC1CCN(C(=O)CO)CC1")
57
>>> test_result("C[C@@H](O)C(=O)N1CCC(CCn2c(Sc3cc4c(cc3Br)OCCO4)nc3c(N)ncnc32)CC1")
32
>>> test_result("C[C@H](O)C(=O)N1CCC(CCn2c(Sc3cc4c(cc3Br)OCCO4)nc3c(N)ncnc32)CC1")
20

[a] C[C@@H](O)C(=O)N1CCC(CCn2c(Sc3cc4c(cc3Br)OCO4)nc3c(N)ncnc32)CC1
[b] Nc1ncnc2c1nc(Sc1cc3c(cc1Br)OCO3)n2CCC(N)C1CC1 (stereo not given)
Prompt: Hi team, can someone confirm which has the larger bioavailability: a or b ? Thanks. Could you answer with the label of the item you picked?
Response: a

###

target: Heat shock protein HSP90 (Homo sapiens, UniProt P07900+P08238); experiment: Inhibition of human HSP90 in HCT116 cells expressing Her2 gene assessed as degradation of Her2 after 4 hrs by luciferase reporter gene assay; type: cell-based; conditions: hct-116
Measured Parameter: IC50 (nM)

The following molecules have reported results that may help.
>>> test_result("Nc1ncnc2c1nc(Sc1cc3c(cc1Br)OCCO3)n2CCC1CCN(C=O)CC1")
49
>>> test_result("CC(C)(N)C(=O)N1CCC(CCn2c(Sc3cc4c(cc3Br)OCO4)nc3c(N)ncnc32)CC1")
960
>>> test_result("Nc1ncnc2c1nc(Sc1cc3c(cc1Cl)OCO3)n2CCC1CCN(C=O)CC1")
92

[I] C#CCN1CCC(CCn2c(Sc3cc4c(cc3Br)OCO4)nc3c(N)ncnc32)CC1
[II] Nc1ncnc2c1nc(Sc1cc3c(cc1Br)OCO3)n2CCc1ccccc1Br
Prompt: Please indicate which item has the smaller measured IC50: I versus II Answer with the label corresponding to your selection.
Response: II
(II: 50 nM, I: 100 nM)
